Just for reference, ChEMBL document CHEMBL1123512 is where these values come from.

targetOrTestSystem: Opioid receptor (Mus musculus) (UniProt P42866+P32300+P33534)
Sequence (P32300 whole entry, looked up): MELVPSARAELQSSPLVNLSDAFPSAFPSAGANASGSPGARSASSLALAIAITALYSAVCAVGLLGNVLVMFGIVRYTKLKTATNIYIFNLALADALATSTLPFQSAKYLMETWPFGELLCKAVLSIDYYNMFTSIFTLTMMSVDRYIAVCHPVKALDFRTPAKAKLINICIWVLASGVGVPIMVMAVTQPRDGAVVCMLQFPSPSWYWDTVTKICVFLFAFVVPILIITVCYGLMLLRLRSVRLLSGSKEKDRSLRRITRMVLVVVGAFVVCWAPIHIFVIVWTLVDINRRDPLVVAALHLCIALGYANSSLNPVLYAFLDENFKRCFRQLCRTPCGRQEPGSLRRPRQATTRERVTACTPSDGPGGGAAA
Sequence (P33534 whole entry, looked up): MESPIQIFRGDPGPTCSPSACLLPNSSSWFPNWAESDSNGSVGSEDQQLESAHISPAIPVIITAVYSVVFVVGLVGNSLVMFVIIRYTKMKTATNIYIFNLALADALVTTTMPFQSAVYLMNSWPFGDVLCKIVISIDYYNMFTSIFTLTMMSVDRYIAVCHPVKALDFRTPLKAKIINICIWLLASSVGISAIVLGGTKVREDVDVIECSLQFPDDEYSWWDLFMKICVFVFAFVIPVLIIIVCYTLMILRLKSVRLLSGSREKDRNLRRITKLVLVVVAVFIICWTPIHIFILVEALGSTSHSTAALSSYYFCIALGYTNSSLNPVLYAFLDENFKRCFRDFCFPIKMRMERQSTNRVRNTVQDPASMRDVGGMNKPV
Sequence (P42866 whole entry, looked up): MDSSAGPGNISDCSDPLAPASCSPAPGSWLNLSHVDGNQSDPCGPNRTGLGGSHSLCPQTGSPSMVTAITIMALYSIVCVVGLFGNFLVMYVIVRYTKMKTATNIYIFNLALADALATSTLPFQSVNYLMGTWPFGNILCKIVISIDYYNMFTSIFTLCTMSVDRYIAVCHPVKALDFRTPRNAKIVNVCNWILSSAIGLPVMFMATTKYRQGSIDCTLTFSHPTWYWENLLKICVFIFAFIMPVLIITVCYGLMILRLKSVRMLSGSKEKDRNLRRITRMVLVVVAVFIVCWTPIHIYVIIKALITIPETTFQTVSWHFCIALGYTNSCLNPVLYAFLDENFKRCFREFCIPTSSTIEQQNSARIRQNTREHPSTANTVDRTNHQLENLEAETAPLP
assayInfo: Compound was tested for agonist activity against opioid receptor in mouse vas deferens
Type: functional, tissue-based
endpoint: IC30
Please don't drop the unit; write it after the number.

Before answering, review these 3 worked examples.
CCOC(=O)/C=C/C(=O)NCC(=O)N[C@@H]1CC[C@@]2(O)C3Cc4ccc(O)c5c4C2(CCN3CC2CC2)[C@H]1O5 (some centres undefined)
0.007 µM
CCOC(=O)/C=C/C(=O)NCC(=O)NCC(=O)NCC(=O)N[C@@H]1CC[C@@]2(O)C3Cc4ccc(O)c5c4C2(CCN3CC2CC2)[C@H]1O5 (some centres undefined)
0.02 µM
CCOC(=O)/C=C/C(=O)NCC(=O)NCC(=O)N[C@@H]1CC[C@@]2(O)C3Cc4ccc(O)c5c4C2(CCN3CC2CC2)[C@H]1O5 (some centres undefined)
0.01 µM

From here, focus on the item given below.
Q: Fill in: IC30 of O=C(CN(CCCl)CCCl)N[C@@H]1CC[C@@]2(O)C3Cc4ccc(O)c5c4C2(CCN3CC2CC2)[C@H]1O5 (some centres undefined) is ___
A: 0.02 µM
